# SYSTEM NAME: T1, recombinant human DLL4 (Cat# 1506-D4/CF, R&D Systems) (human, UniProt Q9NR61 27-529)
# T1 construct: Bought protein; also called hDLL4; rHuman DLL4
# EXPERIMENT NOTES: ELISA, DLL4 coated, Fab 25 nM
ASSAY READOUT: ELISA absorbance at 450 nm
Note: state the figure and append the unit.

Guide cases for ELISA absorbance at 450 nm, answers given:
BINDER | ELISA absorbance at 450 nm
Fab VH1-46_IGHD6-6*01_IGHJ1*01 S102A/S103P/S104F/H111F & L6_IGKJ1*01 S28N/S30D/S31H S52L (Fab, V domains shown, Fab made in E. coli: VH on CH1 with His6 and Flag tags (Plasmid A), VL on kappa CL (Plasmid C); also called H: APFF & L: NDH S52L) VH: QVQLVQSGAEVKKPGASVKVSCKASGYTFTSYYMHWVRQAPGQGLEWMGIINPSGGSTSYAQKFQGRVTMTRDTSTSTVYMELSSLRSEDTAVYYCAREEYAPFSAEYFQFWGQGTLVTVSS VL: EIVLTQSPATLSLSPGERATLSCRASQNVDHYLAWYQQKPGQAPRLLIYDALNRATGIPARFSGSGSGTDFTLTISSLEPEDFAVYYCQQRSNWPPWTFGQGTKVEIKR | 0.335 A450
Fab VH5-51_IGHD5-18*01>3_IGHJ4*01 G100K/G104T G24T/S28R/G35V & V3-4_IGLJ1*01 V91L/S96P S52T (Fab, V domains shown, Fab made in E. coli: VH on CH1 with His6 and Flag tags (Plasmid A), VL on lambda CL (Plasmid E); also called H: KT TRV & L: LP S52T) VH: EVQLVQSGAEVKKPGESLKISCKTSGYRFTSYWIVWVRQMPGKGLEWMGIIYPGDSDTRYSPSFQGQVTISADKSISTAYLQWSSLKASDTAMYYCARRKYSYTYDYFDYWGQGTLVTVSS VL: QTVVTQEPSFSVSPGGTVTLTCGLSSGSVSTSYYPSWYQQTPGQAPRTLIYTTNTRSSGVPDRFSGSILGNKAALTITGAQADDESDYYCLLYMGPGISYVFGTGTKVTVL | 0.62 A450
Fab VH5-51_IGHD5-18*01>3_IGHJ4*01 G100K/G104T G24T/S28R/G35V & V3-4_IGLJ1*01 V91L/S96P S52Q (Fab, V domains shown, Fab made in E. coli: VH on CH1 with His6 and Flag tags (Plasmid A), VL on lambda CL (Plasmid E); also called H: KT TRV & L: LP S52Q) VH: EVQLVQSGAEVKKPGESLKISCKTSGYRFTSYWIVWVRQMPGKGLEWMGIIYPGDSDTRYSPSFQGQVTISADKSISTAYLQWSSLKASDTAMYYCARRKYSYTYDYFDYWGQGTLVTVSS VL: QTVVTQEPSFSVSPGGTVTLTCGLSSGSVSTSYYPSWYQQTPGQAPRTLIYQTNTRSSGVPDRFSGSILGNKAALTITGAQADDESDYYCLLYMGPGISYVFGTGTKVTVL | 0.67 A450
Fab VH5-51_IGHD5-18*01>3_IGHJ4*01 G100K/G104T G24T/S28R/G35V & V3-4_IGLJ1*01 V91L/S96P S52Y (Fab, V domains shown, Fab made in E. coli: VH on CH1 with His6 and Flag tags (Plasmid A), VL on lambda CL (Plasmid E); also called H: KT TRV & L: LP S52Y) VH: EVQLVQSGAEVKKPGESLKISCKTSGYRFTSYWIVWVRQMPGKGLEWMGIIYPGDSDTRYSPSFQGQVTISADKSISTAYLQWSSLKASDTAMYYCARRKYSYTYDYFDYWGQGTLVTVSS VL: QTVVTQEPSFSVSPGGTVTLTCGLSSGSVSTSYYPSWYQQTPGQAPRTLIYYTNTRSSGVPDRFSGSILGNKAALTITGAQADDESDYYCLLYMGPGISYVFGTGTKVTVL | 0.56 A450

Input line: # return recorded ELISA absorbance at 450 nm for input Fab VH1-46_IGHD6-6*01_IGHJ1*01 S102A/S103P/S104F/H111F & L6_IGKJ1*01 S28N/S30D/S31H A55S (Fab, V domains shown, Fab made in E. coli: VH on CH1 with His6 and Flag tags (Plasmid A), VL on kappa CL (Plasmid C); also called H: APFF & L: NDH A55S) VH: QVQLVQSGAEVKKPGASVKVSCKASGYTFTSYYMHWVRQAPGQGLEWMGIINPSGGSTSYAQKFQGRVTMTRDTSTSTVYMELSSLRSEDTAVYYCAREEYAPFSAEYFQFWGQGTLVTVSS VL: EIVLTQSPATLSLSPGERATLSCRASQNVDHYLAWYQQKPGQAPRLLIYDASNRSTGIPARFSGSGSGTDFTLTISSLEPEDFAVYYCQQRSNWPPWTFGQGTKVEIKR
Output line: 0.407 A450
